measured on: ATP-dependent translocase ABCB1 (Homo sapiens, UniProt P08183)
Sequence (P08183 whole entry): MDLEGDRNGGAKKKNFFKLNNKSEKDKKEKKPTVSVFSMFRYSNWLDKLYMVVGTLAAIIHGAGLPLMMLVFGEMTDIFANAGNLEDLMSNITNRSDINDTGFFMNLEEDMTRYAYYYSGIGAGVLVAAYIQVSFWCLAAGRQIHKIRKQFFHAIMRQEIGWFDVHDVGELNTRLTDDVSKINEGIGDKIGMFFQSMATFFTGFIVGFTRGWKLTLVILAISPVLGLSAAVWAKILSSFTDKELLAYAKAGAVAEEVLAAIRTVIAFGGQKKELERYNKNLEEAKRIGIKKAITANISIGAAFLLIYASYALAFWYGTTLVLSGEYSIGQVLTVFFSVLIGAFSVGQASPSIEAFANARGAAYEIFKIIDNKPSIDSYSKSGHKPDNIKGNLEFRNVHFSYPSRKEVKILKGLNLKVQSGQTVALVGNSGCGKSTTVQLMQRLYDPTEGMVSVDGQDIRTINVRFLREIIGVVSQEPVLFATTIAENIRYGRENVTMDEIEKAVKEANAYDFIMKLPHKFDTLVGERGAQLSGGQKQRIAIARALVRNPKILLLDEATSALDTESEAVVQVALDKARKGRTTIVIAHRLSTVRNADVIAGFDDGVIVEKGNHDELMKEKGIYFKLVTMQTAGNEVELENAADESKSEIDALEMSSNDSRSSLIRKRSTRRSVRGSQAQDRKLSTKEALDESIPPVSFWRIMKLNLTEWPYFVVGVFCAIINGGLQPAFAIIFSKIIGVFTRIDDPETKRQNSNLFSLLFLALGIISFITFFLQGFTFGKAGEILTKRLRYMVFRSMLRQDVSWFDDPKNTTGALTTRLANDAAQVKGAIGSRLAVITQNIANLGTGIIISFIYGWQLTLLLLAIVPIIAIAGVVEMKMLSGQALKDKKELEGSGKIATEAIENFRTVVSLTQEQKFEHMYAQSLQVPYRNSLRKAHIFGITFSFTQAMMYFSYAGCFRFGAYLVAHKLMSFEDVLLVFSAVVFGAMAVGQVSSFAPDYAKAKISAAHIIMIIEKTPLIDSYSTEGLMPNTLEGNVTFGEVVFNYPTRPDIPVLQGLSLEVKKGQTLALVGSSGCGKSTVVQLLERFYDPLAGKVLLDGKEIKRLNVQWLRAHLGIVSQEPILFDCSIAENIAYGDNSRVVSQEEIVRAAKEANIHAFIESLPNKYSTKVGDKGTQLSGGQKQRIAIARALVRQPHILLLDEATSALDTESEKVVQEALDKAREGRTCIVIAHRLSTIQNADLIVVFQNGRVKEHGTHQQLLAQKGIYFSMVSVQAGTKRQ
assay method text: Inhibition of human ABCB1 expressed in mouse L5178Y cells assessed as fluorescence activity ratio at 20 uM pretreated for 10 mins followed by rhodamine-123 addition after 20 mins by flow cytometry
Type: cell-based
A collection of compounds and their measured Ratio
value type: Ratio

CC[C@@H]1CN(C)[C@H]2Cc3c([nH]c4ccccc34)[C@@H](O)C[C@H]1[C@@H]2C(=O)OC: 1.36
CC[C@@H]1CN(C)[C@H]2Cc3c([nH]c4ccccc34)/C(=N/NC(N)=O)C[C@H]1[C@@H]2C(=O)OC: 2.12
CC[C@@H]1CN(C)[C@H]2Cc3c([nH]c4ccccc34)[C@@H](OC(=O)C34CC5CC(CC(C5)C3)C4)C[C@H]1[C@@H]2C(=O)OC: 8.61
CC[C@H]1CN(C)[C@H]2Cc3c([nH]c4ccccc34)[C@@H](O)C[C@H]1[C@@H]2C(=O)OC: 5.18
C/C=C/C(=O)O[C@H]1C[C@@H]2[C@@H](CC)CN(C)[C@@H](Cc3c1[nH]c1ccccc31)[C@H]2C(=O)OC: 18.09
CC[C@H]1CN(C)[C@H]2Cc3c([nH]c4ccccc34)/C(=N/NC(=O)OCc3ccc(OC)cc3)C[C@H]1[C@@H]2C(=O)OC: 72.88
CC[C@H]1CN(C)[C@H]2Cc3c(n(CCN(CC)CC)c4ccccc34)C(=O)C[C@H]1[C@@H]2C(=O)OC: 52.93
